Sourced from patent US11279733B2

System: K. pneumoniae GN_106, PmxR
Conditions: GN 106, PmxR
Positions of bridges follow the written chain, without caps; N, C: chain ends. Non-standard residues stand in square brackets, D forms with d. Residues, ends and D or L forms follow the SMILES beside them. *: point of attachment. Decanoyl(3R-OH) = CCCCCCC[C@@H](O)CC(=O)*; X6 = CC(C)CCCC(O)CC(=O)*; dDap = NC[C@@H](N)C(=O)O; Dab = NCC[C@H](N)C(=O)O
propertyMeasured: MIC K. pneumoniae GN_106, PmxR (µg/mL)
API: value field is a number in µg/mL; no unit string.

{"columns": ["compound", "unitAbbrev", "MIC K. pneumoniae GN_106, PmxR"],
 "data": [
  ["CC(C)CCCC(O)CC(=O)N[C@@H](CCN)C(=O)N[C@H]1CCNC(=O)[C@H](CC(C)C)NC(=O)[C@H](CCN)NC(=O)[C@H](CCN)NC(=O)[C@H](CC(C)C)NC(=O)[C@@H](Cc2ccccc2)NC(=O)[C@H](CCN)NC1=O (stereo partly drawn) [compound 5566] (X6-[Dab][Dab][Dab][dF]L[Dab][Dab]L; lactam 2-C)", "µg/mL", 16],
  ["CCCCCCC[C@@H](O)CC(=O)N[C@H](CN)C(=O)N[C@H]1CCNC(=O)[C@H](CC(C)C)NC(=O)[C@H](CCN)NC(=O)[C@H](CCN)NC(=O)[C@H](CC(C)C)NC(=O)[C@@H](CC(C)C)NC(=O)[C@H](CCN)NC1=O [compound 8977] ({Decanoyl(3R-OH)}-[dDap][Dab][Dab][dL]L[Dab][Dab]L; lactam 2-C)", "µg/mL", 4]
]}

Note: attention shifts to another entry.
Check the records and state MIC K. pneumoniae GN_106, PmxR for CCCCCCC[C@@H](O)CC(=O)NCC(=O)N[C@H]1CCNC(=O)[C@H](CC(C)C)NC(=O)[C@H](CCN)NC(=O)[C@H](CCN)NC(=O)[C@H](Cc2ccccc2)NC(=O)[C@@H](CC(C)C)NC(=O)[C@H](CCN)NC1=O [compound 6431] ({Decanoyl(3R-OH)}-G[Dab][Dab][dL]F[Dab][Dab]L; lactam 2-C) 4

----------
Experiment: in vitro
Positions of bridges follow the written chain, without caps; N, C: chain ends. Non-standard residues stand in square brackets, D forms with d. Residues, ends and D or L forms follow the SMILES beside them. *: point of attachment. Decanoyl(3R-OH) = CCCCCCC[C@@H](O)CC(=O)*; Igl = N[C@H](C(=O)O)C1Cc2ccccc2C1; dDap = NC[C@@H](N)C(=O)O; Dab = NCC[C@H](N)C(=O)O
propertyMeasured: CC50 (µM)
API: value field is a number in µM; no unit string.

Check the records and state CC50 for CCCCCCC[C@@H](O)CC(=O)N[C@H](CN)C(=O)N[C@H]1CCNC(=O)[C@H](Cc2c[nH]c3ccccc23)NC(=O)[C@H](CCCNC(=N)N)NC(=O)[C@H](CCCCN)NC(=O)[C@H](C2Cc3ccccc3C2)NC(=O)[C@@H](Cc2ccccc2)NC(=O)[C@H](CCN)NC1=O [compound 8888] ({Decanoyl(3R-OH)}-[dDap][Dab][Dab][dF][Igl]KRW; lactam 2-C) 67

----------
List of MIC, S. Aureus ATCC 25923, MSSA values.
Test system: S. aureus ATCC 25923, MSSA
Details: ATCC 25923
Positions of bridges follow the written chain, without caps; N, C: chain ends. Non-standard residues stand in square brackets, D forms with d. Residues, ends and D or L forms follow the SMILES beside them. *: point of attachment. Decanoyl(3R-OH) = CCCCCCC[C@@H](O)CC(=O)*; dDab = NCC[C@@H](N)C(=O)O; Orn = NCCC[C@H](N)C(=O)O; Dab = NCC[C@H](N)C(=O)O

Previously resolved entries follow.
{"columns": ["compound", "val"],
 "data": [
  ["CCCCCCC[C@@H](O)CC(=O)N[C@H](CCN)C(=O)N[C@H]1CCNC(=O)[C@H](CC(C)C)NC(=O)[C@H](CCN)NC(=O)[C@H](CCN)NC(=O)[C@H](CC(C)C)NC(=O)[C@@H](Cc2ccccc2)NC(=O)[C@H](CCCNC(=N)N)NC1=O [compound 8634] ({Decanoyl(3R-OH)}-[dDab][Dab]R[dF]L[Dab][Dab]L; lactam 2-C)", "16 µg/mL"],
  ["CCCCCCC[C@@H](O)CC(=O)N[C@H](CCN)C(=O)N[C@H]1CCNC(=O)[C@H](CC(C)C)NC(=O)[C@H](CCN)NC(=O)[C@H](CCN)NC(=O)[C@H](CC(C)C)NC(=O)[C@@H](Cc2ccccc2)NC(=O)[C@H](C)NC1=O [compound 4948] ({Decanoyl(3R-OH)}-[dDab][Dab]A[dF]L[Dab][Dab]L; lactam 2-C)", ">32 µg/mL"],
  ["CCCCCCC[C@@H](O)CC(=O)N[C@H](CCN)C(=O)N[C@H]1CCNC(=O)[C@H](CC(C)C)NC(=O)[C@H](CCN)NC(=O)[C@H](CCCN)NC(=O)[C@H](CC(C)C)NC(=O)[C@@H](Cc2ccccc2)NC(=O)[C@H](CCN)NC1=O [compound 991] ({Decanoyl(3R-OH)}-[dDab][Dab][Dab][dF]L[Orn][Dab]L; lactam 2-C)", "8 µg/mL"],
  ["CCCCCCC[C@@H](O)CC(=O)N[C@H](CCN)C(=O)N[C@H]1CCNC(=O)[C@H](CC(C)C)NC(=O)[C@H](CCN)NC(=O)[C@H](CCCNC(=N)N)NC(=O)[C@H](CC(C)C)NC(=O)[C@@H](Cc2ccccc2)NC(=O)[C@H](CCN)NC1=O [compound 8733] ({Decanoyl(3R-OH)}-[dDab][Dab][Dab][dF]LR[Dab]L; lactam 2-C)", "8 µg/mL"]
]}

Note: attention shifts to another entry.
Check the records and state MIC, S. Aureus ATCC 25923, MSSA for CCCCCCC[C@@H](O)CC(=O)N[C@H](CCN)C(=O)N[C@H]1CCNC(=O)[C@H](CC(C)C)NC(=O)[C@H](CCN)NC(=O)[C@H](CCN)NC(=O)[C@H](CC(C)C)NC(=O)[C@@H](Cc2ccccc2)NC(=O)[C@H](CCCN)NC1=O [compound 994] ({Decanoyl(3R-OH)}-[dDab][Dab][Orn][dF]L[Dab][Dab]L; lactam 2-C) 32 µg/mL
